# Measured on: T1, His-tagged mouse CD38 (ACRO Biosystems #CD8-M5223) (mouse, UniProt P56528 45-304)
# T1 construct: bought recombinant protein with His tag; also called Murine
# T1 sequence (looked up): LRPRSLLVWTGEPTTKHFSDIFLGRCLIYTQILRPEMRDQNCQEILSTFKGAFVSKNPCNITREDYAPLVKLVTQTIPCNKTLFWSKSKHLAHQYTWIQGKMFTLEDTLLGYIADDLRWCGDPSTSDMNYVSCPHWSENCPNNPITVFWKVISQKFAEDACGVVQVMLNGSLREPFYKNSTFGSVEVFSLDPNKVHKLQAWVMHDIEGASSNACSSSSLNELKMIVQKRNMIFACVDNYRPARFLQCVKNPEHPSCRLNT
# Experiment notes: ELISA, coated His-CD38
Each item that follows carries a reported ELISA 1 ug/ml.
Property label: ELISA 1 ug/ml

Binder: 40769p1.1.B8 (scFv, V domains shown, tested as scFv-Fc supernatant) VH: EVQLLESGGGLVQPGGSLRLSCAASGFTFEDYAMSWVRQAPGKGLEWVSVISSKGGSTSNADSVKGRFTISRDNSKNTLYLQMNSLRAEDTAVYYCAKGMERQYYSYNAMDVWGQGTTVTVSS VL: QSVLTQPPSASGTPGQRVTISCSGSNSNIDVDYVYWYQQLPGTAPRLLIYKDDQRPSGVPDRFSGSKSGTSASLAISGLQSEDEADYYCATWDDNLNSWLFGGGTKLTVL
Numeric value: 0.048

Binder: 40566p1.B11 (scFv, V domains shown, tested as scFv-Fc supernatant) VH: DVQLVESGGGLVRPGESLRLSCAASGFTFDNYDMTWVRQAPGEGLEWVSFISSRGTFTYYTDSVKGRFTISRDNSKNTLYLQMNSLRAEDTAIYYCAKDSGEYYFFDYWGLGTLVTVSS VL: EIVMTQSPATLSVSPGERATFSCRASQSVNSKLAWYQQKPGQAPRLLIYGASRRATGIPDRFSESGSGTEFTLTISSLQSEDFAVYYCQQYHDWPPLTFGGGTKVEIK
Numeric value: 1.24

Binder: 40596p1.D2 (scFv, V domains shown, tested as scFv-Fc supernatant) VH: EVQLLESGGGLVQPGGSLRLSCAASGFDFSKNAMSWVRQAPGKGLEYVAGSGWSGSFIFYADSVKGRSTVSRDNSENTLYLQMSSLRAEDTAVYYCAKNPGFGEMDVWGQGTTVTVSS VL: ELVLTQSPGSLFLSPGERATLTCRASQTIGSNLAWYQQKFGQAPRLLIYGASTRAADIPDRFSGSGSGTEFTLTISSLQSEDFAVYYCQQYNSWPPLTFGGGTKVEIK
Numeric value: 1.77

Binder: 40769p1.1.A4 (scFv, V domains shown, tested as scFv-Fc supernatant) VH: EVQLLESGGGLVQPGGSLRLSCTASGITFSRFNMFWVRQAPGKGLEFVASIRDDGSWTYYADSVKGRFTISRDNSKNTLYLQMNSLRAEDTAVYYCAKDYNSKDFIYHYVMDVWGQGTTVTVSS VL: QSVLTQPPSASGTPGQRVTISCSGRNSNIGNNVVNWYQQLPGTAPKLLIYKDDQRPSGVPDRFSGSKSGTSASLAISGLQSEDEADYYCSTWDDSLNGWVFGGGTKLTVL
Numeric value: 0.049

Binder: 40769p1.1.B12 (scFv, V domains shown, tested as scFv-Fc supernatant) VH: EVQLLESGGGLIQPGGSLRLSCTASGFDFSSYGMHWVRQAPGKGLEWVGIISDSGGTTYYADSVKGRFTISRDNSKNTMYLQMNSLRAEDTALYYCASYIMDVWGQGITVTVSS VL: QSVLTQPPSASGTPGQRVTISCSGSSSNVGGNSVYWYQQLPGTAPKLLFYGNHRRPSGVPDRFSGSKSGTSASLAISGLQSEDEADYYCAVWDDSLNAWVFGGGTKLTVL
Numeric value: 0.472
